assay: Pharmacokinetic experiment in rats; format: in vivo, Sprague-Dawley rats; conditions: male, Sprague-Dawley, plasma; rat, PO 10 mg/kg
Quantity Name: AUC(0-t) (ng·h/mL)

INSERT INTO measurements (molecule, measurement_unit, result_number) VALUES
  ('C[C@H]1CC(=O)Nc2cnn3ccc(nc23)N[C@H](C)c2cc(F)ccc2O1', 'ng·h/mL', 11500),
  ('C[C@H]1Nc2ccn3ncc(c3n2)NC(=O)CCOc2ccc(F)cc21', 'ng·h/mL', 11500),
  ('C[C@H]1CC(=O)Nc2cnn3ccc(nc23)N2CCC[C@@H]2c2cc(F)ccc2O1', 'ng·h/mL', 4470),
  ('C[C@H]1CNC(=O)c2cnn3ccc(nc23)N[C@H](C)c2cc(F)ccc2O1 [TPX-0005, reference compound]', 'ng·h/mL', 5470),
  ('O=C1CCOc2ccc(F)cc2[C@H]2CCCN2c2ccn3ncc(c3n2)N1', 'ng·h/mL', 11300),
  ('C[C@@H]1CCc2ncc(F)cc2[C@H]2CCCN2c2ccn3ncc(c3n2)C(=O)N1 [LOXO-195, reference compound]', 'ng·h/mL', 4070);
